# measuredOn: Phosphatidylinositol 4,5-bisphosphate 3-kinase catalytic subunit alpha isoform (Homo sapiens)
# Sequence (P42336 whole entry, canonical isoform): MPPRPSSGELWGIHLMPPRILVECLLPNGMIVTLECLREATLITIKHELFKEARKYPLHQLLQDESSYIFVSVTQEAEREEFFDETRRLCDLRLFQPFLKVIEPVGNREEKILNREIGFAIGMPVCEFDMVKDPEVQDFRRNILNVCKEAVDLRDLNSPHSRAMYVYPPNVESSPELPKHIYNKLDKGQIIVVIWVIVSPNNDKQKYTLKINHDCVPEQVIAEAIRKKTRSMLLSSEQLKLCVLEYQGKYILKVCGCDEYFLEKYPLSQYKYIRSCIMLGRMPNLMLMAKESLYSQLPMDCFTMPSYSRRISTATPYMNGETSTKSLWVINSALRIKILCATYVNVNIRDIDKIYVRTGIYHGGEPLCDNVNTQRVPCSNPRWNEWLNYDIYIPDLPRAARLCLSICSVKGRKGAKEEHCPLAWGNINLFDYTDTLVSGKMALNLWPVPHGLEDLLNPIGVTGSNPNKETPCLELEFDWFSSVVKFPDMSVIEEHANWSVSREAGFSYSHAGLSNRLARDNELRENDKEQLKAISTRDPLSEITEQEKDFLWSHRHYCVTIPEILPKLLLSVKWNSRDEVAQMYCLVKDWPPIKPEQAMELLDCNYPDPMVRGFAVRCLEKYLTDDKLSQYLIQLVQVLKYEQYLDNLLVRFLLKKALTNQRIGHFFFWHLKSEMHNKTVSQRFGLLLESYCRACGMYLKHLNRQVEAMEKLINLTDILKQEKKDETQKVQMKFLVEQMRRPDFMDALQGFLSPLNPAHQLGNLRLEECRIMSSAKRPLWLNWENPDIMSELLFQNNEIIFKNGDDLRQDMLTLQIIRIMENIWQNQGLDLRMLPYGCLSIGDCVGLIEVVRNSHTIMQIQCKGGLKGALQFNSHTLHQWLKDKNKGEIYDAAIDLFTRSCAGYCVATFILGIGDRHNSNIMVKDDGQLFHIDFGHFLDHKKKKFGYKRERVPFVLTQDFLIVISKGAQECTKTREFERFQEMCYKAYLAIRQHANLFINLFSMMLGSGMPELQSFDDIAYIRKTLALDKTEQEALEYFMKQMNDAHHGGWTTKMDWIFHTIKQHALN
# measurementProtocol: Inhibition of recombinant human PI3Kalpha assessed as reduction in ADP production using Dic8-PIP2 as substrate pre-treated for 15 mins followed by substrate addition measured after 60 mins by ADP-glo assay
pIC50: −log10 of the molar value.
experimentalReadout: pIC50

Field: example entries. Status: answers known.
Cc1nc2sc1-c1cc3c(c(c1)S(=O)(=O)NCCOCCNC(=O)c1cccc(n1)N2)C(=O)N([C@@H](C)C1CC1)C3 ... 7.40
Cc1nc2sc1-c1cc3c(c(c1)S(=O)(=O)NCCCCCNC(=O)c1cccc(n1)N2)C(=O)N([C@@H](C)C1CC1)C3 ... 7.50
CNS(=O)(=O)c1cc(-c2sc(Nc3cccc(N4CC[C@@H](O)C4=O)n3)nc2C)cc2c1C(=O)N([C@@H](C)C1CC1)C2 ... 7.80
Cc1nc2sc1-c1cc3c(c(c1)S(=O)(=O)NCCN(C)CCNC(=O)c1cccc(n1)N2)C(=O)N([C@@H](C)C1CC1)C3 ... 7.40
Cc1nc(Nc2cccc(N3CCOCC3=O)n2)sc1-c1cc2c(c(S(C)(=O)=O)c1)C(=O)N([C@@H](C)C1CC1)C2 ... 7.30

a. CNS(=O)(=O)c1cc(-c2sc(Nc3cccc(N4CCN(C)CC4=O)n3)nc2C)cc2c1C(=O)N([C@@H](C)C1CC1)C2
b. CNS(=O)(=O)c1cc(-c2sc(Nc3cccc(N4CCCCC4=O)n3)nc2C)cc2c1C(=O)N([C@@H](C)C1CC1)C2
c. Cc1nc(Nc2cccc(N3CCCC3=O)n2)sc1-c1cc2c(c(S(=O)(=O)NC3COC3)c1)C(=O)N([C@@H](C)C1CC1)C2
// sort entries: pIC50, high to low Quick reminder: the answer is the labels in the order asked.
b, a, c

* * *

# measuredOn: Phosphatidylinositol 4,5-bisphosphate 3-kinase catalytic subunit delta isoform (Homo sapiens)
# Sequence (O00329 whole entry, canonical isoform): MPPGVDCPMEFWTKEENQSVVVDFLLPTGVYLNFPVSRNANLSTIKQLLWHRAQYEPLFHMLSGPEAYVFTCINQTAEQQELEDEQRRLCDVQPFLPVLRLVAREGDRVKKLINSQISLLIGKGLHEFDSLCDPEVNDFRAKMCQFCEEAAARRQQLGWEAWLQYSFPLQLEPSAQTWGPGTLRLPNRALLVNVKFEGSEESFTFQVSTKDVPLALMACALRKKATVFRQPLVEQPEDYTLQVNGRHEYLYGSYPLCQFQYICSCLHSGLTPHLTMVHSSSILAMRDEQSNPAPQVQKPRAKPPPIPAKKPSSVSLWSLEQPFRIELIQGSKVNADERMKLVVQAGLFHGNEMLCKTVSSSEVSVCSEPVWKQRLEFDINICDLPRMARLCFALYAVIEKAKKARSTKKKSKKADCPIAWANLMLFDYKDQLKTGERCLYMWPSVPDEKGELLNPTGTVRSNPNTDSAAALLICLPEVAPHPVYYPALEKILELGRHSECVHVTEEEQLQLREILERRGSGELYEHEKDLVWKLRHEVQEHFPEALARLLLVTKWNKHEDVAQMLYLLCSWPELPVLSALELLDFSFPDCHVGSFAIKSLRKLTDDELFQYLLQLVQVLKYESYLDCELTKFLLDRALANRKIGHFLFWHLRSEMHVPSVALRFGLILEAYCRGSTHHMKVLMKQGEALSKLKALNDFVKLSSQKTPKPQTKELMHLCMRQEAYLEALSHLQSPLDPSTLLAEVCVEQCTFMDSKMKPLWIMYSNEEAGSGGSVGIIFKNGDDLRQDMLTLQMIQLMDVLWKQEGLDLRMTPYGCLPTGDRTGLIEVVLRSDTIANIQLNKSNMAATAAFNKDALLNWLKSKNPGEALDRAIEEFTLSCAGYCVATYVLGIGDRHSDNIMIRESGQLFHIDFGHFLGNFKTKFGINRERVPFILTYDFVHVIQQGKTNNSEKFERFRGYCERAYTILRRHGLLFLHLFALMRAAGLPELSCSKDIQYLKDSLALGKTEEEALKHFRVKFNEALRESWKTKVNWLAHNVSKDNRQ
# measurementProtocol: Inhibition of recombinant human PI3Kdelta assessed as reduction in ADP production using Dic8-PIP2 as substrate pre-treated for 15 mins followed by substrate addition measured after 60 mins by ADP-glo assay
pIC50: −log10 of the molar value.
experimentalReadout: pIC50

Field: example entries. Status: answers known.
CNS(=O)(=O)c1cc(-c2sc(Nc3cccc(N4CCNCC4=O)n3)nc2C)cc2c1C(=O)N([C@@H](C)C1CC1)C2 ... 9.10
CC(=O)Nc1nc(C)c(-c2cc3c(c(S(=O)(=O)Nc4cccc(CN(C)C)c4)c2)C(=O)N([C@@H](C)C2CC2)C3)s1 ... 7.80
Cc1nc(Nc2cccc(N3CCCC3=O)n2)sc1-c1cc2c(c(S(=O)(=O)NC3COC3)c1)C(=O)N([C@@H](C)C1CC1)C2 ... 9.10
CC(=O)Nc1nc(C)c(-c2cc3c(c(S(=O)(=O)Nc4ccccc4)c2)C(=O)N([C@@H](C)C2CC2)C3)s1 ... 7.30
CC(=O)N(C)c1cccc(Nc2nc(C)c(-c3cc4c(c(S(C)(=O)=O)c3)C(=O)N([C@@H](C)C3CC3)C4)s2)n1 ... 8.90
Cc1nc(Nc2cccc(N3CCCOC3=O)n2)sc1-c1cc2c(c(S(C)(=O)=O)c1)C(=O)N([C@@H](C)C1CC1)C2 ... 8.90
Cc1nc2sc1-c1cc3c(c(c1)S(=O)(=O)NCCN(C)CCCNC(=O)c1cccc(n1)N2)C(=O)N([C@@H](C)C1CC1)C3 ... 9.20

a. CNS(=O)(=O)c1cc(-c2sc(Nc3cccc(N4CCCOC4=O)n3)nc2C)cc2c1C(=O)N([C@@H](C)C1CC1)C2
b. CC(=O)Nc1nc(C)c(-c2cc3c(c(S(=O)(=O)N(C)c4cccc(C#N)c4)c2)C(=O)N([C@@H](C)C2CC2)C3)s1
Of a and b , whose reported pIC50 is the larger number? Indicate which entry you chose by stating its label.
a
